Hello, the source for this data is patent US20130131043A1, in case you need it.

Below: a set of entries, each annotated with reported pIC50.
- assay.system: JAK3 (Homo sapiens)
- Construct: endogenous in cells; mixed Molt4/Ramos lysate 1:2
- assay.details: Kinobeads assay, JAK3 (competition binding in cell lysate, dot blot detection)
- condition: mixed Molt4/Ramos lysate
pIC50: −log10 of the molar value.

Record excerpt, results attached:
INSERT INTO results (compound, assay_system, reported_measurement) VALUES
  ('CC1CCC(n2ncc3cnc(Nc4cnn(C)c4)nc32)C1 (mixture of isomers) [Example 15]', 'JAK3 (Homo sapiens)', '6.00 to 7.00'),
  ('CC(=O)NC1CCC(n2ncc3cnc(Nc4cnn(C)c4)nc32)CC1 (stereo not shown) [Example 22]', 'JAK3 (Homo sapiens)', '6.00 to 7.00'),
  ('Cn1cc(Nc2ncc3cnn(C4CCNCC4)c3n2)cn1 [Example 12]', 'JAK3 (Homo sapiens)', '5.00 to 6.00'),
  ('Cn1cc(Nc2ncc3cnn(CC4CCCN(C(=O)C(F)(F)F)C4)c3n2)cn1 (stereo not shown) [Example 47]', 'JAK3 (Homo sapiens)', '6.00 to 7.00'),
  ('Cn1cc(Nc2ncc3cnn(CC4CCCNC4)c3n2)cn1 (stereo not shown) [Example 5]', 'JAK3 (Homo sapiens)', '6.00 to 7.00'),
  ('Cn1cc(Nc2ncc3cnn(CC4CCCN(CCS(C)(=O)=O)C4)c3n2)cn1 (stereo not shown) [Example 46]', 'JAK3 (Homo sapiens)', '> 7.00');

Then there is this compound:
**Q:** Suppose we examine the compound CN1CCCC(Cn2ncc3cnc(Nc4cnn(C)c4)nc32)C1 (stereo not shown) [Example 6] ; what pIC50 value has been reported?
**A:** > 7.00

---

Below: a set of entries, each annotated with reported pIC50.
- assay.system: JAK2 (Homo sapiens)
- Construct: endogenous in cells; mixed Molt4/Ramos lysate 1:2
- Sequence (O60674 whole entry): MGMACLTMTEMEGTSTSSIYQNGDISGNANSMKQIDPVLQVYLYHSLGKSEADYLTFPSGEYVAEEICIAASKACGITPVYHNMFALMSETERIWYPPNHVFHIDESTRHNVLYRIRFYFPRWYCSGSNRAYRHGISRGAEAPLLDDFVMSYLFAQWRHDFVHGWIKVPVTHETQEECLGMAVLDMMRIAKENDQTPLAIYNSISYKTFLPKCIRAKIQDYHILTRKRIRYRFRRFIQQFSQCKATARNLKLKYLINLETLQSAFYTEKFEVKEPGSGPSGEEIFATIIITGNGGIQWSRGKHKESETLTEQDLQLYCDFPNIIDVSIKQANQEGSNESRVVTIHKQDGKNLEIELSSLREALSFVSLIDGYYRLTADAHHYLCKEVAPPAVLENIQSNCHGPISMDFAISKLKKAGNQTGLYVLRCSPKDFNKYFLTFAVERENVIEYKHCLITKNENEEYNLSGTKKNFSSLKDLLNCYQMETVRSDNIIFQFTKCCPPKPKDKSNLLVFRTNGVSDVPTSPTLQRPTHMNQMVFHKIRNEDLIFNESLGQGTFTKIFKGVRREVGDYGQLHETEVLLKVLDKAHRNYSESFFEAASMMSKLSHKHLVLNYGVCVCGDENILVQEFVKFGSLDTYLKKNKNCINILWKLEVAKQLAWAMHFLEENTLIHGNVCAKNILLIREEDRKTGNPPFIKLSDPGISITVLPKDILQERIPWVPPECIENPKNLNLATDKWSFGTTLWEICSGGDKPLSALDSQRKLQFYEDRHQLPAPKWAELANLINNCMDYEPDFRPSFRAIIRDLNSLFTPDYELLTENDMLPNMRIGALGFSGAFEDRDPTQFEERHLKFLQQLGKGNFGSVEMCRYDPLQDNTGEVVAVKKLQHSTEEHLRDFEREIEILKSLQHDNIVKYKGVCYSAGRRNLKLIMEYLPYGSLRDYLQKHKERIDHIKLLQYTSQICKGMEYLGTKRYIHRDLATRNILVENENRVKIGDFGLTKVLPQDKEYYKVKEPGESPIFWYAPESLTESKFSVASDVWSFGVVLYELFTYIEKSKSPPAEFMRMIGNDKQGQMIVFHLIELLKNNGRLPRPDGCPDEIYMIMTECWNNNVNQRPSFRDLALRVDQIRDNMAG
- assay.details: Kinobeads assay, JAK2 (competition binding in cell lysate, dot blot detection)
- condition: mixed Molt4/Ramos lysate
pIC50: −log10 of the molar value.

INSERT INTO assay_data (compound, recorded_endpoint, reported_measurement) VALUES
  ('C[C@H]1CCCC[C@@H]1n1ncc2cnc(Nc3cnn(CCO)c3)nc21 (racemic)', 'pIC50', '5.00 to 6.00'),
  ('Cn1cc(Nc2ncc3cnn(CC4CCCN(C(=O)C(F)(F)F)C4)c3n2)cn1 (stereo not drawn)', 'pIC50', '5.00 to 6.00'),
  ('Cn1cc(Nc2ncc3cnn(C4CCCCC4)c3n2)cn1', 'pIC50', '< 5.00'),
  ('Cn1cc(Nc2ncc3cnn(CC4CCCN(C(=O)C5CCOCC5)C4)c3n2)cn1 (stereo not drawn)', 'pIC50', '< 5.00'),
  ('Cn1cc(Nc2ncc3cnn(CC4CCCN(C(=O)CC#N)C4)c3n2)cn1 (stereo not drawn)', 'pIC50', '5.00 to 6.00'),
  ('CC(C1CCCCC1)n1ncc2cnc(Nc3cnn(C)c3)nc21 (stereo not drawn)', 'pIC50', '< 5.00'),
  ('Cn1cc(Nc2ncc3cnn(CC4CCCN(S(=O)(=O)C5CC5)C4)c3n2)cn1 (stereo not drawn)', 'pIC50', '5.00 to 6.00'),
  ('CCNC(=O)N1CCCC(Cn2ncc3cnc(Nc4cnn(C)c4)nc32)C1 (stereo not drawn)', 'pIC50', '5.00 to 6.00'),
  ('C[C@H]1CCC[C@H](n2ncc3cnc(Nc4cnn(C)c4)nc32)C1 (racemic)', 'pIC50', '5.00 to 6.00'),
  ('Cn1cc(Nc2ncc3cnn(CC4CCNC4)c3n2)cn1 (stereo not drawn)', 'pIC50', '5.00 to 6.00');

**Q:** Field: pIC50 (JAK2 (Homo sapiens)). Entry: Cn1cc(Nc2ncc3cnn(CC4CCCN(C(=O)CCS(C)(=O)=O)C4)c3n2)cn1 (stereo not drawn)
**A:** 5.00 to 6.00

**Q:** And then CN1CCCC(Cn2ncc3cnc(Nc4cnn(C)c4)nc32)C1 (stereo not drawn) , what is it?
**A:** 5.00 to 6.00

---

- assay.system: JAK3 (Homo sapiens, UniProt P52333)
- Construct: endogenous in cells; mixed Molt4/Ramos lysate 1:2
- Sequence (P52333 1-1124): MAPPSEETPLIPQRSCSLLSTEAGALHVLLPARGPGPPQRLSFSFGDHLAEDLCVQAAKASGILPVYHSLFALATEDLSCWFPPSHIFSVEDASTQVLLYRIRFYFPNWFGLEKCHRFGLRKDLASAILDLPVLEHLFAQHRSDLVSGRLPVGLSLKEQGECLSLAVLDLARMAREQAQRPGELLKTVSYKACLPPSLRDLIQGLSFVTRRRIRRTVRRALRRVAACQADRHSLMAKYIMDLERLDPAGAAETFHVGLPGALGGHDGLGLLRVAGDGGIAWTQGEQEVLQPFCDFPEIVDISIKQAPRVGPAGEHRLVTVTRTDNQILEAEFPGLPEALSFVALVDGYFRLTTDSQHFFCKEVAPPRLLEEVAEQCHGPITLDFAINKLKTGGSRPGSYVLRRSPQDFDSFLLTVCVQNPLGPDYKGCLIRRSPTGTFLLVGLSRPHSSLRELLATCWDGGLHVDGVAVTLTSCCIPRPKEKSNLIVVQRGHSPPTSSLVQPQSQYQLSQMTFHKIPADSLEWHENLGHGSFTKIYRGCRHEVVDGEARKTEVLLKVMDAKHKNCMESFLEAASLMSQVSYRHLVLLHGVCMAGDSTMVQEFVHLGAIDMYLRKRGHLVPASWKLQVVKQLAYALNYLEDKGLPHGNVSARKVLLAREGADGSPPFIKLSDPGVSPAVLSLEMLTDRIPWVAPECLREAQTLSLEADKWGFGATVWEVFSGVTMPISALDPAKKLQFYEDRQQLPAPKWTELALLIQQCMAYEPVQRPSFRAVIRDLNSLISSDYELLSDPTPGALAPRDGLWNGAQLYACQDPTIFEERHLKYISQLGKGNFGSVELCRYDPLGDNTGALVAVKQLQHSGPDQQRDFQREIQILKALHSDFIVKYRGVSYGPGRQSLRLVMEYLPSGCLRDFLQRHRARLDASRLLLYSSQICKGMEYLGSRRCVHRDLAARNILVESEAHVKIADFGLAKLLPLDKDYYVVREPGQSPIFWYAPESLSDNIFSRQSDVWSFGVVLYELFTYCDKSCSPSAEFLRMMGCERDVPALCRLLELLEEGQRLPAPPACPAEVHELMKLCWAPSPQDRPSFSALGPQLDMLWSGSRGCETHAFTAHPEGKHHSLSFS
- assay.details: Kinobeads assay, JAK3 (competition binding in cell lysate, dot blot detection)
- condition: mixed Molt4/Ramos lysate
pIC50: −log10 of the molar value.
Below: a set of entries, each annotated with reported pIC50.

INSERT INTO results (compound, recorded_endpoint, reported_measurement) VALUES
  ('CN(C)C(=O)N1CCCC(Cn2ncc3cnc(Nc4cnn(C)c4)nc32)C1 (centres unmarked) [Example 65]', 'pIC50', '> 7.00'),
  ('COCCN1CCCC(Cn2ncc3cnc(Nc4cnn(C)c4)nc32)C1 (centres unmarked) [Example 35]', 'pIC50', '> 7.00'),
  ('Cn1cc(Nc2ncc3cnn(C4CCCN(C(=O)CC#N)C4)c3n2)cn1 (centres unmarked) [Example 25]', 'pIC50', '6.00 to 7.00');

**Q:** Suppose we examine the compound Cn1cc(Nc2ncc3cnn(CC4CCCN(CCO)C4)c3n2)cn1 (centres unmarked) [Example 66] ; what pIC50 value has been reported?
**A:** > 7.00

**Q:** And then COCCOC(=O)N1CCCC(Cn2ncc3cnc(Nc4cnn(C)c4)nc32)C1 (centres unmarked) [Example 45] , what is it?
**A:** 6.00 to 7.00

---

- assay.system: JAK3 (Homo sapiens, UniProt P52333)
- Construct: endogenous in cells; mixed Molt4/Ramos lysate 1:2
- assay.details: Kinobeads assay, JAK3 (competition binding in cell lysate, dot blot detection)
- condition: mixed Molt4/Ramos lysate
recorded.endpoint: IC50

**Q:** Suppose we examine the molecule N#CCN1CCCC(Cn2ncc3cnc(Nc4cnn(CC(F)F)c4)nc32)C1 (centres unmarked) ; what IC50 value has been reported?
**A:** 100 to 1000 nM

**Q:** And then CCC(C1CCCCC1)n1ncc2cnc(Nc3cnn(C)c3)nc21 (centres unmarked) , what is it?
**A:** 100 to 1000 nM

**Q:** And then Cn1cc(Nc2ncc3cnn(CC4CCCN(C(=O)CC#N)C4)c3n2)cn1 (centres unmarked) , what is it?
**A:** < 100 nM

**Q:** And then CSCCN1CCCC(Cn2ncc3cnc(Nc4cnn(C)c4)nc32)C1 (centres unmarked) , what is it?
**A:** < 100 nM

**Q:** And then CSCCC(=O)N1CCCC(Cn2ncc3cnc(Nc4cnn(CC(F)F)c4)nc32)C1 (centres unmarked) , what is it?
**A:** 100 to 1000 nM

**Q:** And then CC(C)S(=O)(=O)N1CCCC(Cn2ncc3cnc(Nc4cnn(C)c4)nc32)C1 (centres unmarked) , what is it?
**A:** < 100 nM

**Q:** And then Cn1cc(Nc2ncc3cnn(CCC4CCCNC4)c3n2)cn1 (centres unmarked) , what is it?
**A:** 100 to 1000 nM

**Q:** And then Cn1cc(Nc2ncc3cnn(CCCNS(C)(=O)=O)c3n2)cn1 , what is it?
**A:** 100 to 1000 nM

**Q:** And then C[C@H]1CCCC[C@@H]1n1ncc2cnc(Nc3cnn(C)c3)nc21 (racemic) , what is it?
**A:** < 100 nM

**Q:** And then Cn1cc(Nc2ncc3cnn(CC4CCCN(C(=O)CCS(C)(=O)=O)C4)c3n2)cn1 (centres unmarked) , what is it?
**A:** < 100 nM

**Q:** And then CCOC(=O)N1CCCC(Cn2ncc3cnc(Nc4cnn(C)c4)nc32)C1 (centres unmarked) , what is it?
**A:** 100 to 1000 nM

**Q:** And then CS(=O)(=O)N1CCCC(Cn2ncc3cnc(Nc4cnn(CCO)c4)nc32)C1 (centres unmarked) , what is it?
**A:** < 100 nM

**Q:** And then Cn1cc(Nc2ncc3cnn(CC4CCCN(C(=O)NC5CC5)C4)c3n2)cn1 (centres unmarked) , what is it?
**A:** < 100 nM

**Q:** And then Cn1cc(Nc2ncc3cnn(C4CCCNC4)c3n2)cn1 (centres unmarked) , what is it?
**A:** 1000 to 10000 nM

**Q:** And then Cn1cc(Nc2ncc3cnn(CC4CCCN(CC(F)F)C4)c3n2)cn1 (centres unmarked) , what is it?
**A:** < 100 nM

**Q:** And then CC1CCCC1n1ncc2cnc(Nc3cnn(C)c3)nc21 (centres unmarked) , what is it?
**A:** 100 to 1000 nM

**Q:** And then CCN1CCCC(Cn2ncc3cnc(Nc4cnn(C)c4)nc32)C1 (centres unmarked) , what is it?
**A:** < 100 nM

**Q:** And then Cn1cc(Nc2ncc3cnn(CC4CCN(S(=O)(=O)C5CC5)C4)c3n2)cn1 (centres unmarked) , what is it?
**A:** 100 to 1000 nM
